The measured values listed here are drawn from ChEMBL document CHEMBL4138104.

# Tested on: CCRF-CEM
# ASSAY METHOD TEXT: Growth inhibition of human CCRF-CEM cells incubated for 48 hrs by sulforhodamine B assay
# Type: functional
Threshold 300 nM: GI50 strictly smaller gives yes (1), otherwise no (0).

The examples below pair each entry with its known result.
| MOLECULE | MEASURED ON | CLASS |
| --- | --- | --- |
| C=C1C(=O)O[C@@H]2[C@H]3O[C@]3(C)CC/C=C(/COC(=O)c3cc4cc(F)ccc4[nH]3)CC[C@@H]12 | CCRF-CEM | no (0) |
| C=C1C(=O)O[C@@H]2[C@H]3O[C@]3(C)CC/C=C(/COC(=O)c3cc4ccccc4[nH]3)CC[C@@H]12 | CCRF-CEM | yes (1) |
| C=C1C(=O)O[C@@H]2C3O[C@]3(C)CC/C=C(\C)CC[C@@H]12 (stereo not given in full) | CCRF-CEM | no (0) |
| C=C1C(=O)O[C@@H]2[C@H]3O[C@]3(C)CC/C=C(/COC(=O)c3c[nH]c4ccccc34)CC[C@@H]12 | CCRF-CEM | yes (1) |

Now take the following molecule into account.
In: Does this molecule meet the criterion GI50 < 300 nM? `C=C1C(=O)O[C@@H]2[C@H]3O[C@]3(C)CC/C=C(/COC(=O)c3cc4ccccc4o3)CC[C@@H]12`
Out: no (0)
